B1: CPEB3 Ribozyme (parent)
chain: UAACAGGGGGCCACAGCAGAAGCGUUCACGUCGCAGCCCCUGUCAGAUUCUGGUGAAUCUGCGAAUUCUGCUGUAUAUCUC

Variants of: B1
Assay: self-cleavage, relative activity (ratio to wild type); higher = more cleavage; in vitro, sequencing
Recorded Endpoint: self-cleavage
Please reply with the value in numeric form only.

// solved cases for self-cleavage follow
# Variant Identifier, Value Observed
measured = [
    ("U49A U67A", 0.57),
    ("A21G U48A", 0.35),
]

Q: Field request: self-cleavage | item: G6A U54G
A: 0.19

Q: # repeat for U48C G52C
A: 0.42

Q: And what about the variant U25C G52U ?
A: 0.29

Q: Please give the result for U60C U69G too.
A: 0.39

Q: // query: A21G C62G
A: 0.22

Q: Also G19U G73U , if possible.
A: 0.56

Q: What would you report for U1C G70C ?
A: 0.35

Q: Now consider A5G C27U and answer again.
A: 0.13

Q: Moving on to C62G U69C
A: 0.22

Q: Now try U51A U78A .
A: 1

Q: Try this variant next: G33U U41A
A: 0.18

Q: Entry C29G U69C please
A: 0.21

Q: And for A15G C40U ?
A: 0.67

Q: Repeat for the following variant: A35C U48A
A: 0.45

Q: // next record "A15G"
A: 0.92

Q: Now consider C17G A35U and answer again.
A: 0.32

Q: Another variant to look at: G9U U26G
A: 0.09
